- measurement_protocol: activity coefficient (dimensionless); of the first substance listed, at infinite dilution; xn = mol fraction of the nth substance listed
- protocol_conditions: 313.15 K; Liquid; Chromatography; x1 = 0
observable: activity coefficient
The answer should be a number; do not append a unit.

Worked examples follow.
Fill in reported activity coefficient for this entry: CCO [ethanol] + CCc1ccccc1
13.7

Using known records, supply activity coefficient for CCCCO [butan-1-ol] + CCc1ccccc1
9.49

---
// fetch activity coefficient given entry CO [methanol] + CCc1ccccc1
18

Please indicate activity coefficient recorded for CCCO [propan-1-ol] + CCc1ccccc1
10.3
